METHOD: small-molecule microarray binders of probe aLefty2, primary screen, biochemical, biotinylated probe, 635/667 nm fluorescence (AID 1094);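 note: score merges spot fluorescence near 667 nm with spot signal-to-noise ratio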
TEST_SETTINGS: higher = more signal
OBSERVATION_TYPE: composite z-score
No unit in the answer, only the number.

Q) Record request: composite z-score value, item "Cc1ccc([C@H]2[C@H](C(=O)O)[C@H](Sc3ccccc3)[C@@H](C(C)C)N2S(=O)(=O)c2ccc(C)cc2)cc1"
A) 0.179

Q) Record request: composite z-score value, item CC(c1ccccc1)C(O)C1C=CC2C(=O)NC(=O)C2N1Nc1ccccn1 (centres undefined)
A) 0.136

Q) Record request: composite z-score value, item "O=C1O[C@@H](c2ccccc2)[C@@H](c2ccccc2)N2[C@@H](c3ccccc3OCCO)[C@]3(C(=O)Nc4ccc(C#CC5(O)CCCCCC5)cc43)[C@@H](C(=O)Nc3nc4ccccc4s3)[C@H]12"
A) 0.01

Q) Record request: composite z-score value, item "CCCN1C(=O)[C@@]2(CCC(=O)OC(C)(C)C)N=C(c3ccc(OCCCO)cc3)O[C@H]2c2ccccc21"
A) 0.0272

Q) Record request: composite z-score value, item "CC(=O)Nc1cc(Br)ccc1C(=O)O"
A) -0.0006

Q) Record request: composite z-score value, item "O=C(O)[C@H]1C[C@H]2C(=O)NCC(=O)N2[C@H]1c1ccc(O)cc1"
A) -0.025

Q) Record request: composite z-score value, item "[N-]=[N+]=NCc1ccccc1[C@@H]1OC(c2ccc(OCCCO)cc2)=N[C@]1(Cc1ccccc1N=[N+]=[N-])C(=O)NCc1ccccc1"
A) 0.139

Q) Record request: composite z-score value, item "N[C@@H](Cc1ccccc1)Cn1cc(-c2ccccc2)nn1"
A) 0.323

Q) Record request: composite z-score value, item CCCCC(O)C1C=CC2C(=O)N(C3CCCCC3)C(=O)C2N1Nc1ccc(OC)cc1 (centres undefined)
A) 0.165

Q) Record request: composite z-score value, item "COCCOC(=O)N1C(=O)[C@@]2(c3cc(C#CCC(C(=O)OC)C(=O)OC)ccc31)[C@H](C(=O)N1CCN(c3ncccn3)CC1)[C@H]1C(=O)O[C@H](c3ccccc3)[C@H](c3ccccc3)N1[C@@H]2c1ccc(OCCO)cc1"
A) -0.184

Q) Record request: composite z-score value, item "COC(=O)[C@@]1(Cc2ccccc2)N=C(c2ccc(OCCCO)cc2)O[C@H]1c1ccccc1N=[N+]=[N-]"
A) 0.0484

Q) Record request: composite z-score value, item "COCCOC(=O)N1C(=O)[C@@]2(c3cc(C#CCNC(N)=O)ccc31)[C@H](C(=O)N1CCN(c3ncccn3)CC1)[C@H]1C(=O)O[C@H](c3ccccc3)[C@H](c3ccccc3)N1[C@@H]2c1ccccc1OCCO"
A) 0.181

Q) Record request: composite z-score value, item "O=C1O[C@H](c2ccccc2)[C@H](c2ccccc2)N2[C@H]1[C@@H](C(=O)O)[C@]1(C(=O)Nc3ccc(C#CC4(O)CCCCCC4)cc31)[C@H]2c1ccc(OCCO)cc1"
A) -0.124

Q) Record request: composite z-score value, item "O=C1O[C@@H](c2ccccc2)[C@@H](c2ccccc2)N2[C@@H](c3ccc(OCCO)cc3)[C@]3(C(=O)Nc4ccccc43)[C@@H](C(=O)Nc3nc4ccccc4s3)[C@H]12"
A) 0.321

Values were extracted from PubChem BioAssay.
